These data points were gathered from patent US20150231109A1.

# experimental-details: Pharmacokinetic studies in mice plasma
# Format: in vivo
# conditions-used: mouse, ip, male C57BL/6 mice, intra-peritoneal MTX 50 mg/kg alone or with TMECG 50 mg/kg, read-out: MTX parameters Cmax
assay-readout: Cmax (ng/mL)
Entry rule: numbers only, all in ng/mL.

Give the measured Cmax of CN(Cc1cnc2nc(N)nc(N)c2n1)c1ccc(C(=O)N[C@@H](CCC(=O)O)C(=O)O)cc1 [MTX, methotrexate] .
24600

* * *

# experimental-details: Pharmacokinetic studies in mice plasma
# Format: in vivo
# conditions-used: mouse, ip, male C57BL/6 mice, intra-peritoneal TMECG 50 mg/kg alone or with MTX 50 mg/kg, read-out: TMECG Parameters AUC
assay-readout: AUC (ng·h/mL)
Entry rule: numbers only, all in ng·h/mL.

Give the measured AUC of COc1cc(C(=O)O[C@@H]2Cc3c(O)cc(O)cc3O[C@@H]2c2ccc(O)c(O)c2)cc(OC)c1OC [TMECG, 3,4,5-trimethoxy-epicatechin-3-gallate] .
79100
